Experimental details: Retardation factor of the compound using EtOAc-n-hexane at ratio of 1:1 by thin layer chromatography
Assay type: physicochemical
Readout type: Rf

COc1ccc(NC(=O)c2csc([C@@H](NC(=O)c3csc([C@@H](NC(=O)OC(C)(C)C)C(C)C)n3)C(C)C)n2)c(OC)c1
0.55
CCOC(=O)c1csc([C@@H](NC(=O)c2cc(OC)c(OC)c(OC)c2)C(C)C)n1
0.6
COc1cc(NC(=O)c2csc([C@@H](NC(=O)c3csc([C@@H](NC(=O)OC(C)(C)C)C(C)C)n3)C(C)C)n2)cc(OC)c1OC
0.45
COc1ccc([C@@H](C)NC(=O)c2csc([C@@H](NC(=O)c3cc(OC)c(OC)c(OC)c3)C(C)C)n2)cc1
0.45
COc1cc2c(cc1OC)C(=O)C(CC1CCN(C(=O)c3csc([C@@H](NC(=O)OC(C)(C)C)C(C)C)n3)CC1)C2 (stereo partly drawn)
0.2
CCOC(=O)c1csc([C@@H](NC(=O)c2cnc3ccccc3c2)C(C)C)n1
0.4
CCOC(=O)c1csc([C@@H](NC(=O)c2csc([C@@H](NC(=O)c3ccc(OC)c(OC)c3)C(C)C)n2)C(C)C)n1
0.4
COc1cc(NC(=O)c2csc([C@@H](NC(=O)c3cc(OC)c(OC)c(OC)c3)C(C)C)n2)cc(OC)c1OC
0.4

* * *

Experimental details: Cytotoxicity against human SW620/Ad300 cells overexpressing ABCB1 assessed as cell survival at 10 uM by MTT assay
Assay type: ADME, cell-based, SW-620
Test conditions: SW620/Ad300 cells that overexpress ABCB1, read-out: Activity
Readout type: viability at 10 µM

COc1cc(C(=O)N[C@H](c2nc(C(=O)Nc3ccccc3C(=O)c3ccccc3)cs2)C(C)C)cc(OC)c1OC
> 85%

* * *

Tgt: ATP-dependent translocase ABCB1 (Homo sapiens, UniProt P08183)
Sequence (P08183 whole entry): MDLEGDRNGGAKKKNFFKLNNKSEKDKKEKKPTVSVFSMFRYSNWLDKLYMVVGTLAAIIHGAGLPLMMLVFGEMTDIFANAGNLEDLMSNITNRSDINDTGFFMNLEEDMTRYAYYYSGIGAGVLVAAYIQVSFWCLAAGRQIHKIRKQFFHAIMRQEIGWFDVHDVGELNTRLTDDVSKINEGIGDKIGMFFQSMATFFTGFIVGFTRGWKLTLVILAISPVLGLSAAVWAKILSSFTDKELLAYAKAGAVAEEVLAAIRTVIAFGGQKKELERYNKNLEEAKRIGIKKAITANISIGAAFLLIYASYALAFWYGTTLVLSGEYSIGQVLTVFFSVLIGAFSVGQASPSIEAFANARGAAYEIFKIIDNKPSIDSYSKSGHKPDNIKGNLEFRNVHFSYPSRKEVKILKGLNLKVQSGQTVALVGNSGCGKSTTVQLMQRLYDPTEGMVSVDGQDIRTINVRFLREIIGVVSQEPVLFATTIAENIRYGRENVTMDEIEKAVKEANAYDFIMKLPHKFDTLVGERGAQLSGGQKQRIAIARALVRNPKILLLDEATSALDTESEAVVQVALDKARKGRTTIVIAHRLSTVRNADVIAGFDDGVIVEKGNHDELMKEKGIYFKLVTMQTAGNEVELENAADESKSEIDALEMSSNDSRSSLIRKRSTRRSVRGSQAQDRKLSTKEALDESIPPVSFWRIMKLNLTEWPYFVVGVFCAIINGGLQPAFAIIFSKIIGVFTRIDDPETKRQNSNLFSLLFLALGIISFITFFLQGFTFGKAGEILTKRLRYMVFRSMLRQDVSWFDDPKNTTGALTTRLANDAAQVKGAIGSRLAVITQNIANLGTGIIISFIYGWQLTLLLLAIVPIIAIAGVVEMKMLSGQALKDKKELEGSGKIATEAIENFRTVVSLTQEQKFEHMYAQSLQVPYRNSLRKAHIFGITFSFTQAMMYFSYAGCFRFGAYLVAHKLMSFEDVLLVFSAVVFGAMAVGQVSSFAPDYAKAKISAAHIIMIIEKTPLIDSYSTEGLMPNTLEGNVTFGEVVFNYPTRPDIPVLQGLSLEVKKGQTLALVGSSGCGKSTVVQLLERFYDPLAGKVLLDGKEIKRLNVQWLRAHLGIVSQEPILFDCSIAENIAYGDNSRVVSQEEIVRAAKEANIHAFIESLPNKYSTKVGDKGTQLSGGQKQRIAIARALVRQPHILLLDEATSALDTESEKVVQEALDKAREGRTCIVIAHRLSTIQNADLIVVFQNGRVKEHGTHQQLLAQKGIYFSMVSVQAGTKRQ
Experimental details: Inhibition of human wild type P-gp expressed in BacMam virus infected human HeLa cells assessed as calcein-AM accumulation at 10 uM after 10 mins by flow cytometry
Type: cell-based
Readout type: inhibition (INH) (%)

CCOC(=O)c1csc([C@@H](NC(=O)c2cnc3ccccc3c2)C(C)C)n1
2
COc1cc2c(cc1OC)C(=O)C(CC1CCN(C(=O)c3csc([C@@H](NC(=O)OC(C)(C)C)C(C)C)n3)CC1)C2 (some centres not stated)
15
CCOC(=O)c1csc([C@@H](NC(=O)c2csc([C@@H](NC(=O)c3cc(OC)c(OC)c(OC)c3)C(C)C)n2)C(C)C)n1
55
COc1ccc([C@@H](C)NC(=O)c2csc([C@@H](NC(=O)c3cc(OC)c(OC)c(OC)c3)C(C)C)n2)cc1
24
COc1cc(C(=O)N[C@H](c2nc(C(=O)Nc3ccc4c(c3)OCO4)cs2)C(C)C)cc(OC)c1OC
40
COc1cc2c(cc1OC)CN(C(=O)c1csc([C@@H](NC(=O)c3cc(OC)c(OC)c(OC)c3)C(C)C)n1)CC2
16
CCOC(=O)c1csc([C@@H](NC(=O)/C=C/c2ccc(OC)c(OC)c2)C(C)C)n1
11
COc1cc(C(=O)N[C@H](c2nc(C(=O)Nc3ccccc3C(=O)c3ccc(F)cc3)cs2)C(C)C)cc(OC)c1OC
54
COc1cc(C(=O)N[C@H](c2nc(C(=O)NCc3ccc4c(c3)OCO4)cs2)C(C)C)cc(OC)c1OC
20
COc1cc(C(=O)N[C@H](c2nc(C(=O)NCCc3ccccn3)cs2)C(C)C)cc(OC)c1OC
5
COc1cc(C(=O)N[C@H](c2nc(C(=O)Nc3ccc(C(=O)c4ccccc4)cc3)cs2)C(C)C)cc(OC)c1OC
18
COc1cc(NC(=O)c2csc([C@@H](NC(=O)c3cc(OC)c(OC)c(OC)c3)C(C)C)n2)cc(OC)c1OC
58
CCOC(=O)c1csc([C@@H](NC(=O)c2cc(OC)c(OC)c(OC)c2)C(C)C)n1
10
COc1cc(C(=O)N[C@H](c2nc(C(=O)NC3Cc4ccccc4C3)cs2)C(C)C)cc(OC)c1OC
47
COc1cc(C(=O)N[C@H](c2nc(C(=O)NCc3ccc(-c4ccccc4)cc3)cs2)C(C)C)cc(OC)c1OC
23
COc1cc(NC(=O)c2csc([C@@H](NC(=O)c3cc(OC)c(OC)c(OC)c3)C(C)C)n2)cc(OC)c1
37
COc1cc(CNC(=O)c2csc([C@@H](NC(=O)c3cc(OC)c(OC)c(OC)c3)C(C)C)n2)cc(OC)c1OC
4
